target: EPHB2 (UniProt P29323); assay: phosphorylation enrichment, bacterial display (enrichment ratio); higher = better substrate or ligand; peptides without Tyr show the background
Sequence (P29323 whole entry, looked up): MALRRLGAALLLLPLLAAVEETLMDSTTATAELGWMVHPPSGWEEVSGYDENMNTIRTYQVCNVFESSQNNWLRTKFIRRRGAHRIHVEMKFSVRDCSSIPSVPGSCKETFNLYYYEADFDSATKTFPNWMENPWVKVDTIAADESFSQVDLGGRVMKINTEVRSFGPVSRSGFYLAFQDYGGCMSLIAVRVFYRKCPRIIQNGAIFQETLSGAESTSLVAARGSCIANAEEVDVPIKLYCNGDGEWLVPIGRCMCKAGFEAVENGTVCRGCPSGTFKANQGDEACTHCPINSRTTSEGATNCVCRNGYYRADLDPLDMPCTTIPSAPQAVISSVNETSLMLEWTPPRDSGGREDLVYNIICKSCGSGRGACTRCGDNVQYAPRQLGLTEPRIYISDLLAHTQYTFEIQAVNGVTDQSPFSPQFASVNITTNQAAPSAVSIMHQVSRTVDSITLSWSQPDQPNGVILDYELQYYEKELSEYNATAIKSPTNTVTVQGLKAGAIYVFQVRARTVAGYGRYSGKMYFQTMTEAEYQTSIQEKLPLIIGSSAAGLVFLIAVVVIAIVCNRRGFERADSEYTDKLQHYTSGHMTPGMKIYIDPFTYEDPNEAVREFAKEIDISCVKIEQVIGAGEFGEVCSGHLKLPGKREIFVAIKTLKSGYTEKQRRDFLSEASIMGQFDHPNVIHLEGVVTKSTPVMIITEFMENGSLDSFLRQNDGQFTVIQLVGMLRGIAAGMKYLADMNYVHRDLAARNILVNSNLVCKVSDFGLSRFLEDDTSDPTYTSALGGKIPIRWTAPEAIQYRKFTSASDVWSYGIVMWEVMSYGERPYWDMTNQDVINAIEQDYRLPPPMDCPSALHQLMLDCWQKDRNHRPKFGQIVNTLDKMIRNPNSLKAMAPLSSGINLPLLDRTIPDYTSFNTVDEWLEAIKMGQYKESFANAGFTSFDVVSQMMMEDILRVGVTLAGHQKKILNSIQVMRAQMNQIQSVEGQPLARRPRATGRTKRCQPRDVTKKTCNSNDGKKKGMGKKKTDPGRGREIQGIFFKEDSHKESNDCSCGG
reported endpoint: phosphorylation enrichment

DFKIIYIAPMR [SNRNP200_Y540]	0.486
NSNSDYVDILP [SH2D1B_Y127_V130I]	3.01
ESMLRYEVFGG [STOX1_Y607_YF]	0.471
GIVKAYFVHAR [AIPL1_Y267_R270H_YF]	0.494
WPLKWYVPECI [ZAP70_Y506_A507V]	0.618
LSSEMCVKSFT [F5_Y2149_Y2149C_YF]	1.34
FRGFSYDDIPD [TMEM230_Y112_YF]	0.71
CYSSEYHYVGG [CTSC_Y345_Y340C]	5.91
ESMNIYLQTSP [NAT1_Y208_T207I]	0.697
VRTSKYRGGGG [HBA1_Y141_L137R]	0.407
MKKQKYGRIIM [HSD17B4_Y143]	0.531
PQGVRYTFTID [DCX_Y103_I104T_YF]	1.04
REEIKYMLWLS [OTC_Y55_G50R]	0.992
WEQELYSQLVY [WAS_Y102]	16
SPRDTYSDRSG [CTPS1_Y567]	0.473
TIMTNYNPNYC [ALK_Y1092_D1091N]	0.5
ADKSAYLMGVN [MYH7_Y386_L390V]	0.466
DFAIVYGTIIL [GPR179_Y460_G455D]	0.777
LGKLTYPVGFW [NTHL1_Y177_I176T]	1.65
GTHCHYKAPTV [FZD9_Y569]	0.39
FLAVEYHKPHI [IDS_Y225_G224E]	0.459
DSILVYQGKEQ [USH2A_Y1909]	0.43
TRDTDYQMTKR [ADA_Y308_L304R]	0.446
GHMFAYDWISI [BEST1_Y227_L224M_YF]	0.933
PKEQRYSFLQN [GH1_Y68_K67R]	0.901
SVIKEYQIRQV [USH2A_Y3623_G3618S]	0.346
ATVLNYLPKCI [A2M_Y817]	0.542
VTSLKYSTSPF [BRIP1_Y916_YF]	0.507
WAFNLYDINKD [KCNIP3_Y174]	1.64
PLGKDYRKAEG [MAP1A_Y1909]	0.532
MDDKEYFSVHN [MET_Y1234_Y1230D_YF]	0.587
TGNPAYRSFSN [IL4R_Y497_A492T]	0.328
REAAAYPHGRL [AGXT_Y297_L298P]	0.442
QHNPEYVQQAT [LRRC7_Y1058_S1063T]	0.455
GRVLGYGTFGK [FLT4_Y853_A855T]	0.538
SFPHEYGSQEG [RBM10_Y48_R46H_YF]	0.602
TLQSMYGCDVG [HLA-B_Y123]	0.71
HLTLVYGGIFL [FBP1_Y259_R255L]	0.849

---

biological target: SHP2-C SH2; assay: SH2 binding enrichment of the phosphorylated peptide, bacterial display (enrichment ratio); higher = better substrate or ligand; peptides without Tyr show the background
reported endpoint: SH2 binding enrichment

FRPPFYHRDCM [HGD_Y334_N337D_YF]	1.06
GREYIYVDPMQ [PDGFRA_Y574_H570R]	0.718
GLAELYEYQKK [CKAP5_Y1854_K1857Q]	0.697
YPLELYERVRI [PRKCG_Y312_M317I]	0.736
DKATEYIQFVR [MAX_Y70_M74V_YF]	0.73
FQRLRYIKQLG [SAMHD1_Y146]	0.679
GPSTPYTKSKR [SMARCC2_Y324]	0.758
EDGCIYPGTIA [SMN1_Y109_A111G]	0.699
NKVQFYIPDMN [NCR1_Y84_K82Q]	0.888
SRASFYRKGGC [ALK_Y1283_Y1278S_YF]	0.548
IRKDLYANNVL [ACTA2_Y296]	0.614
FISLIYTNFEA [GSTP1_Y109_YF]	0.872
RGDCMYAPLLG [AR_Y269]	0.739
GHMFAYDWISI [BEST1_Y227_L224M_YF]	1.03
GGFNNYGFGSD [HNRNPH3_Y159_N163S_YF]	0.744
DSKIRYLSADS [TTF1_Y476_E473K]	0.682
PEADKYRLTFA [FGG_Y300_YF]	0.673
IFLADCRIMEG [ALOX12B_Y318_Y318C_YF]	0.62
MSRDVYSTDCF [NTRK2_Y702_Y706C_YF]	0.683

---

test system: c-Src; assay: phosphorylation enrichment, bacterial display (enrichment ratio); higher = better substrate or ligand; peptides without Tyr show the background
reported endpoint: phosphorylation enrichment

SVVVPYEPPGV [TP53_Y220_E224G]	0.407
LKKLEYLNLAL [LRRC6_Y70]	0.367
AKIDGYITSYR	0.417
NYYDTCIKTCL [IQGAP2_Y1445_Y1445C]	1.16
GAVGHYVLAER [HFE_Y342_M339V]	0.503
DAKAIYDFTDT [PDK1_Y136]	5.87
VLNKGYRMVVN [HINT1_Y94_G89V]	0.326

---

Readings of phosphorylation enrichment for the listed sequences
target: Fyn (UniProt P06241); assay: phosphorylation enrichment, bacterial display (enrichment ratio); higher = better substrate or ligand; peptides without Tyr show the background
Sequence (P06241 whole entry, looked up): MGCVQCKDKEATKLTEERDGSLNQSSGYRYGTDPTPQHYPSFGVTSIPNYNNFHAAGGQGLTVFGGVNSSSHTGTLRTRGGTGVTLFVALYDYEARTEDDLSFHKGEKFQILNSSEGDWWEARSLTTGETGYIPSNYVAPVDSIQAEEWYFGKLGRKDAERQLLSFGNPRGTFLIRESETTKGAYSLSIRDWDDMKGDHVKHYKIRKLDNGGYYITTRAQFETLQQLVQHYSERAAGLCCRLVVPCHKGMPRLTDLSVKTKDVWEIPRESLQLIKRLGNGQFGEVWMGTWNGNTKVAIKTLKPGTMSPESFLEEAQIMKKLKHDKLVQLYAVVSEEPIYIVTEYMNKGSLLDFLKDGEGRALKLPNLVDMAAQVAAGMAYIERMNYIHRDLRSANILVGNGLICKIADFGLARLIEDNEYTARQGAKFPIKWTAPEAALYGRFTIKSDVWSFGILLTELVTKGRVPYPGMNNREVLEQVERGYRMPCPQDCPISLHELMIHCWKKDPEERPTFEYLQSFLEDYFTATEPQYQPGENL
reported endpoint: phosphorylation enrichment

LVGTPYWMAPE [PAK5_Y608]	0.683
PLGKDYRKAEG [MAP1A_Y1909]	0.72
DVVKDCAFVHM [RBM14_Y114_Y114C]	0.488

---

target: FGFR3 (UniProt P22607); assay: phosphorylation enrichment, bacterial display (enrichment ratio); higher = better substrate or ligand; peptides without Tyr show the background
Sequence (P22607 whole entry, looked up): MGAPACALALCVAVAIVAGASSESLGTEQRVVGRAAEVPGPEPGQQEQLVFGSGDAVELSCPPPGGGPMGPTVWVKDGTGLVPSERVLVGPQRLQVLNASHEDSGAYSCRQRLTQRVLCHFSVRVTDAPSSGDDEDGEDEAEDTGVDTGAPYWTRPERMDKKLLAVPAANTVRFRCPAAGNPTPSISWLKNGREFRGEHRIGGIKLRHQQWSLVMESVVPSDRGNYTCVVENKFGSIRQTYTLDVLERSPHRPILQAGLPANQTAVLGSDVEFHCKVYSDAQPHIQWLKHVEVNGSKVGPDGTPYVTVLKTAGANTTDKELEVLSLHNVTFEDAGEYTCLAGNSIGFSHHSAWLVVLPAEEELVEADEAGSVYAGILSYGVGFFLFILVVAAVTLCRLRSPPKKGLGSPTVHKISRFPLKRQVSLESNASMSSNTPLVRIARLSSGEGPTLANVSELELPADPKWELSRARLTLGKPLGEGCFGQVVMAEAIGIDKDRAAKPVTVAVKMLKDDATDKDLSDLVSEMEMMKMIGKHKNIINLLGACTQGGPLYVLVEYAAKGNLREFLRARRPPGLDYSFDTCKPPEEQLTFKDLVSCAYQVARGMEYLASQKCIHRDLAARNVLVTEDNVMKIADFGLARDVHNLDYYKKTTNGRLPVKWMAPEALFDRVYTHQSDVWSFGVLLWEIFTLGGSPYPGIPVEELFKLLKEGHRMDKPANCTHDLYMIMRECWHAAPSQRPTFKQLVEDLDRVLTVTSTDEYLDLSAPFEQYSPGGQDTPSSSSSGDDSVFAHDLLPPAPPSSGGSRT
reported endpoint: phosphorylation enrichment

ASKEPYYVRCI [MYO1D_Y585]	0.813
LQLLGDRPVFS [CHST6_Y358_Y358D_YF]	0.542
STQAHYRLSAF [ADAMTS9_Y100_S96T]	0.536
AFEQQYSPIPK [NOX1_Y373_R378K]	0.575
LRIAVYHEILI [CREBBP_Y1450_T1447I]	6.95

---

Readings of phosphorylation enrichment for the listed sequences
target: Fyn (UniProt P06241); assay: phosphorylation enrichment, bacterial display (enrichment ratio); higher = better substrate or ligand; peptides without Tyr show the background
reported endpoint: phosphorylation enrichment

GNHVSYYQSDG [CACNA1C_Y1757]	0.462
QKKEEYKMALY [F8_Y1990_R1985Q]	0.603
MFQVQYNSSVD [LRFN1_Y458_YF]	0.394
GIVKAYFVRAR [AIPL1_Y267_YF]	0.488
ESDFPYSSSFE [SRPK2_Y427_T426P_YF]	0.511
MGSFNYLGFAR [SPTLC2_Y178_YF]	0.439
ATDLAYYLVRE [ASL_Y375_K380E]	0.929
QMWLKYSQSDL [SMC1A_Y714_R711W]	0.485
IGERTYGQVYK [CDK13_Y716_G714R]	9.16
QRAADYYSQQM [GBP6_Y333]	1.42
RDSQLYAVDFE [MRPS34_Y34_YF]	0.993
FSCLPCGRLAY [SLC52A2_Y305_Y305C]	0.425

---

target: c-Src SH2; assay: SH2 binding enrichment of the phosphorylated peptide, bacterial display (enrichment ratio); higher = better substrate or ligand; peptides without Tyr show the background
reported endpoint: SH2 binding enrichment

PPEFSYGLQTQ [SRA1_Y35_Q32E]	0.601
HGEAVYSRDCV [XPC_Y676_R671H]	0.586
KIPGRYFETGS [PAX2_Y72_L69P_YF]	0.606

---

molecular target: MERTK (UniProt Q12866); assay: phosphorylation enrichment, bacterial display (enrichment ratio); higher = better substrate or ligand; peptides without Tyr show the background
Sequence (Q12866 whole entry, looked up): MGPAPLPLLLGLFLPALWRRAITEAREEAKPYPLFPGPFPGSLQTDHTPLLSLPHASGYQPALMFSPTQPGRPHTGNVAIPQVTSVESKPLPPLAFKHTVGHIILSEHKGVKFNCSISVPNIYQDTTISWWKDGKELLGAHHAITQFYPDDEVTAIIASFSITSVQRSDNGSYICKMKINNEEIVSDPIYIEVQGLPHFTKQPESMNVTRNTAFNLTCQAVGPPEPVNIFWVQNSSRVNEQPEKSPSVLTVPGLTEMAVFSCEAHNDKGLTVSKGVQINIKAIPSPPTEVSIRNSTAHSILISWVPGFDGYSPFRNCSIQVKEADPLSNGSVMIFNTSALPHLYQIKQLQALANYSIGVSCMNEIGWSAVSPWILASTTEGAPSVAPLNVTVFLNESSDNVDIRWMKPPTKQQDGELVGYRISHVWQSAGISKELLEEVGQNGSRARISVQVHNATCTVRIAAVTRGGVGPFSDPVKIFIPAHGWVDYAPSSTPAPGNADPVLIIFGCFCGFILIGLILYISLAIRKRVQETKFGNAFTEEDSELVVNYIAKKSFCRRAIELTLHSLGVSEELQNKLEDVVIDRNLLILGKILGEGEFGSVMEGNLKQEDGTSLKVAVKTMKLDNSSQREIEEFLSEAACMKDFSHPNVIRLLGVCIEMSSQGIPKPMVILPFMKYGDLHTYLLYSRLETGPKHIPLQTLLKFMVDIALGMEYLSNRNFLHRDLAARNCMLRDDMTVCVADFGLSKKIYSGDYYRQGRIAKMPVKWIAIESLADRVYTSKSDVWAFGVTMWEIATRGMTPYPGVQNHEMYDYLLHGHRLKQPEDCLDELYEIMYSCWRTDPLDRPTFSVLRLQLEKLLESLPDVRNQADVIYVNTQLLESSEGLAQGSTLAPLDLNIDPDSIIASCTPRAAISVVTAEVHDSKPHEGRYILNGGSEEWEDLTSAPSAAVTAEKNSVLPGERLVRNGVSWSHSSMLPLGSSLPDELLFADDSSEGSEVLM
Readings of phosphorylation enrichment for the listed sequences
reported endpoint: phosphorylation enrichment

FESPRYLQVHI [FANCA_Y488]	0.495
RPQDGYRIVQH [PTPRT_Y1329]	0.493
HLTLVYGGIFL [FBP1_Y259_R255L]	0.507
GIVKAYFVRAR [AIPL1_Y267_YF]	0.512
KAIMTYVPSFF [ACTN4_Y260_S262P_YF]	0.487

---

system: AncSZ; assay: phosphorylation enrichment, bacterial display (enrichment ratio); higher = better substrate or ligand; peptides without Tyr show the background
reported endpoint: phosphorylation enrichment

EASEQHLTKAS [NRCAM_Y739_Y739H]	0.887
LLREWYLPDPY [SIX3_Y225_Q227P]	0.888
QRKPSYNQLPS [BRCA2_Y71_A75P]	0.886
PESIPYRKFTT [NTRK1_Y701_L700P]	0.823
SSDKVYAHQMV [MLH1_Y379]	0.551
VRSVDYVLFRS [FAM189B_Y361]	1.06
HPFNSYTFPRL [PAK5_Y316_S312P_YF]	1.3
VTSLKYSTPPY [BRIP1_Y916_S919P]	0.625
TSFSGYRCHRH [NKAPL_Y94_Y96C_YF]	0.703
KRISCYEASYQ [PFKFB3_Y194]	0.896
GINDDHGQLKN [NBN_Y679_Y679H]	0.757
FDNSVYQKTTE [LDLR_Y828_P826S]	0.924
ERPIRYLNHQL [CEP152_Y268_Q265P]	0.504
RGDIFYTSKLW [AKR1C3_Y81_E77G]	1.72
VSSSDYFSFVL [USP24_Y2138_Y2134S]	3.42
IVAEYYDNLPH [DEGS1_Y284_A280V]	1.9
QRAADYYSQQM [GBP6_Y333]	1.29
TSAEGYQDVRD [ABLIM1_Y439_P434T]	1.17
RTESQYQENRG [LRCH3_Y354_R350T]	0.792
GIVKAYFVRAR [AIPL1_Y267_YF]	1.11
SHSMRYFDTSV [HLA-C_Y31_A35S]	0.581
RRAKGYPIDLF [ITGB2_Y125_YF]	4.21

These data points were gathered from the supplement of paper PMC10065799.
